assay: Measurement of parent and metabolite levels in mice (plasma and brain levels after single oral co-dosing); type: in vivo; conditions: mouse, single dose oral, co-dosed, mean n=3, brain, 4 hr, read-out: Brain level
Experimental Endpoint: concentration at 4 h (ng/g)

[
  {
    "Compound": "CN1CCN2c3c(cccc31)[C@@H]1CN(CCCC(=O)c3ccc(F)cc3)CC[C@@H]12 [Formula Q, reference compound]",
    "Reading": 58.8
  },
  {
    "Compound": "[2H]C1([2H])N(C)c2cccc3c2N([C@H]2CCN(CCCC(=O)c4ccc(F)cc4)C[C@@H]32)C1([2H])[2H] [Example 1, p-toluenesulfonate]",
    "Reading": 62.1
  }
]
